Origin of the recorded values: patent US20160089464A1

Experiment: Comment Code material properties: vapor pressure, ClogP, probability of ingredient color instability, odor detection threshold, melamine formaldehyde PMC headspace response ratio and leakage, liquid dish neat product liquid-air partition coefficient
Format: physicochemical
Details: Table 1 materials; each letter of the code is one property class (vapor pressure, ClogP, color instability, odor detection threshold, PMC headspace ratio, PMC leakage, liquid dish liquid-air partition coefficient)
RECORDED ENDPOINT: Comment Code

Previously resolved entries follow.
* CC1=CCC(C23CCCC(C)(C2)OC3)C1(C)C (stereo not shown) [Material 570] | DEFHJK
* C=C(C)C1CC=C(COC(C)=O)CC1 (stereo not shown) [Material 947] | DFHJK
* CCCCCC(=Cc1ccccc1)CO [Material 721] | DEFHJ
* CCCCCC/C=C/C=O [Material 1070] | ADHKL
* CC(C)c1cccc(C(C)CC=O)c1 (stereo not shown) [Material 914] | BDHJK
* CCCCCOC(=O)C=Cc1ccccc1 [Material 671] | DEFHJK
* C=CCCCCCCCC=O [Material 770] | ADHKL
* C=CCCC(=O)C1=CCCC2(CCCC2)C1 [Material 1038] | DGJK

Entry under review: COc1cc(OC)c(C=O)c(OC)c1 [Material 736] . Reported Comment Code?
BCGI

Entry under review: CCC=C1OC(=O)c2ccccc21 [Material 805] . Reported Comment Code?
CEFHK

Entry under review: CC1=CC2C(C(C)C)CCC(C)(O)C2CC1 (stereo not shown) [Material 1046] . Reported Comment Code?
DEFHJK

---

Assay: Comment Code material properties: vapor pressure, ClogP, probability of ingredient color instability, odor detection threshold, melamine formaldehyde PMC headspace response ratio and leakage, liquid dish neat product liquid-air partition coefficient
Type: physicochemical
Conditions: cell strings several class symbols together; each letter is one property class of L1
RECORDED ENDPOINT: Comment Code

- CCCCCCCC(=O)OCCC(C)C [Material 237]: DEFHJK
- C=CCCC(=O)C1=CCCC2(CCCC2)C1 [Material 1038]: DGJK
- CC1=CC[C@@H]2[C@@]3(C)CCCC(C)(C)[C@@H]3CC[C@@]2(C)O1 [Material 1029]: DEFHJK

---

Assay: Comment Code material properties: vapor pressure, ClogP, probability of ingredient color instability, odor detection threshold, melamine formaldehyde PMC headspace response ratio and leakage, liquid dish neat product liquid-air partition coefficient
Format: physicochemical
Conditions: cell strings several class symbols together; each letter is one property class of L1
RECORDED ENDPOINT: Comment Code

- CC1C2CC(CC2C2CCC(O)CC2)C1(C)C (stereo not drawn): DEFHJK
- CC1=CCCC2(C)CCC(C(C)(C)O)CC12 (stereo not drawn): DEFHJK
- COC(Cc1ccccc1)OC: DHJK
- COc1ccc(C=O)cc1OC: BCGIK

---

Experiment: Comment Code material properties: vapor pressure, ClogP, probability of ingredient color instability, odor detection threshold, melamine formaldehyde PMC headspace response ratio and leakage, liquid dish neat product liquid-air partition coefficient
Assay type: physicochemical
Settings: cell strings several class symbols together; each letter is one property class of L1
RECORDED ENDPOINT: Comment Code

* C[C@@H]1CC[C@H]2[C@@H]1[C@H]1[C@@H](CC[C@]2(C)O)C1(C)C | DEFHJK
* CCCCCCCO | ACEFGIKL
* CC1CCC(=O)C1=O (stereo not drawn) | ACEFGIKL
* CCC(=O)OC1CC2C3C=CCC3C1C2(C)C (stereo not drawn) | DEFHJK
